target: thrombin (biotinylated, immobilized on streptavidin microparticles) (UniProt P00734;P00734 328-363;364-622); assay: microparticle flow cytometry; Thrombin-microparticles incubated with 0.5-200 nM FAM-aptamer, washed with DPBS, flow cytometry; binding buffer, pH and temperature not stated
pKd: −log10 of the molar value.
METRIC NAME: pKd

1. hybrid bispecific aptamer without toehold (HBA; 15-mer-Sticky + 29-mer-Sticky) (structured_DNA) DNA 1: GGTTGGTGTGGTTGGTTTTTGACCCTGCGTACC DNA 2: AGTCCGTGGTAGGGCAGGTTGGGGTGACTTTTTTGGTACGCAGGTC = 8.32

Hello, the source for this data is paper PMC12169211, in case you need it.
